Let's go through some recorded pKd values for TcyK (Listeria monocytogenes, UniProt A0A0H3GMT4) together.
pKd: −log10 of the molar value.

Item: "N[C@@H](CSSC[C@H](N)C(=O)O)C(=O)O" | pKd: ~4.89

Given item "N[C@@H](CS)C(=O)O" , the value recorded as its pKd is ~4.18
